target: PLEK2 238-353 PH (domain begin residue: 238, domain end residue: 353); assay: phage ELISA signal ratio (GST-PRM binding over GST background); higher = stronger binding of peptide-phage to the PRM
Param threshold (20) applies to phage ELISA signal ratio; output true (1) when value >= threshold, false (0) when value < threshold.

>>> df
             binder  class_assignment
0  MSGITDWWENPAYWSW         false (0)
1  DHWDAFYTWQKQNYLD          true (1)

(Q) Does `DINVTSDMNQHWMQWS` have a reported phage ELISA signal ratio of at least 20?
(A) true (1)

(Q) Kindly determine if phage ELISA signal ratio recorded for `DQVLKWNEHWHEWLQA` is above or exactly 20.
(A) true (1)

(Q) Is phage ELISA signal ratio at least 20? Consider `SIKHWEQFYASQPPQI`
(A) false (0)

(Q) Entry `DGKHWADFYSAFPMLA` : is its phage ELISA signal ratio no less than 20?
(A) true (1)

(Q) Given the entry `WEDWTYWNDHLHLSPE` , answer whether its phage ELISA signal ratio meets or surpasses 20.
(A) false (0)
